target: Thrombin (UniProt P00735); assay: Determination of the inhibitory constants for thrombin (method of Stürzebecher et al. 1997); format: biochemical
pKi: −log10 of the molar value. Structures can show the parent of a compound that is named as a salt.
measured-metric: pKi

Use the examples below as a reference point.
1. N=C(N)c1ccc(CNC(=O)[C@H](CCC(=O)OCc2ccccc2)NC(=O)C(CCc2ccncc2)NS(=O)(=O)Cc2ccccc2)cc1 (stereo partly drawn)	6.77
2. N=C(N)c1ccc(CNC(=O)CNC(=O)C(CCc2ccncc2)NS(=O)(=O)Cc2ccccc2)cc1 (racemic) [Compound 1, Bzls-D,L-homoAla(4-Pyr)-Gly-4Amba×2 TFA]	5.70
3. N=C(N)c1ccc(CNC(=O)CNC(=O)[C@@H](CCc2ccccc2)NS(=O)(=O)Cc2ccncc2)cc1	5.44
4. N=C(N)c1ccc(CNC(=O)[C@H](CO)NC(=O)[C@@H](CCc2ccncc2)NS(=O)(=O)Cc2ccccc2)cc1 [Compound 3a, Bzls-D,L-homoAla(4-Pyr)-Ser-4Amba×2 TFA]	6.04

1 = N=C(N)c1ccc(CNC(=O)CNC(=O)[C@@H](CCc2ccccc2)NS(=O)(=O)Cc2ccccc2N)cc1
2 = N=C(N)c1ccc(CNC(=O)CNC(=O)C(CCc2ccccn2)NS(=O)(=O)Cc2ccccc2)cc1 (stereo not drawn)
Exercise: compare 1 and 2 ; which one has the greater pKi? Mark your selection by writing its label. 1
(1: 6.04, 2: 5.70)
